Measured OD450, listed per entry.
# systemName: T1, Anti-His
# T1 construct: ELISA coating control
# methodSummary: ELISA, Anti-His coated 1 ug/mL

binder	OD450 / OD450
NBL507-A1L1-P1R2-1E2-(10)-PME207-SEQF_B02 (VHH, purified VHH) VHH: EVQLVESGGGLVQPGGSLRLSCAASGSISSIYAMGWYRQAPGKLRELVAAITTGGSTFYRDSVKGRFTISRDNVANTVYLQMNSLKPEDTAVYHCNGAPWGDIAPVAVSWGQGTQVTVSS	2.44
NBL507-A1L1-P1R2-1B6-(31)-PME207-SEQF_G04 (VHH, purified VHH) VHH: QVQLVESGGGLVQPGGSLRLSCAASGFTFSPSAMSWARQAPGKGLEWVSGIYSDGSTYYRDSVKGRFTISRDNARNMVYLQMNSLKPEDTAVYYCALGAMREGVYSDLLGQGTQVTVSS	1.96
NBL507-A2L1-P1R2-1H1-(275)-PME207-SEQF_G11 (VHH, purified VHH) VHH: QVQLVESGGGLVHPGGSLRLACAASERILSFNVMGWYRQAPGQQREVVATITSVGRTYYADSVKGRFTIFKDNGKNTYLQMSSLKPEDTAVYYCKAVTVGDVDTEYWGQGTQVTVSS	0.98
NBL507-A2L1-P1R2-1C1-(273)-PME207-SEQF_E11 (VHH, purified VHH) VHH: QVQLVESGGGLVHPGGSLRLDCAVSERIASFNVMGWYRQAPGQQREVVATITSVGRTYYADSVKGRFTIAKDNDKNTYLQMNSLKPEDTAVYYCKAVIVGTYDTEYWGQGTLVTVSS	0.71
NBL507-A1L1-P1R2-1B8-(44)-PME207-SEQF_D06 (VHH, purified VHH) VHH: QVQLVESGGGLVQPEGSLRLSCAASGSIFSIYAMGWYRQAPGKQRGLVAAITSGGDTFYADSVKGRFTISRDNARNTVYLQMNNLKSEDTAVYDCNGAPWGDHAPLVASWGQGTQVTVSS	1.79
